pIC50: −log10 of the molar value.
Record set: pIC50 | Somatostatin receptor type 4 (Homo sapiens) | literature, multiple sources.

Lookup: Return reported pIC50 for target or system Somatostatin receptor type 4 (Homo sapiens), item `CC(C)NCc1ccc(C[C@@H]2NC(=O)[C@@H](N(C)C(=O)c3ccc4ccccc4c3)NC(=O)[C@H](Cc3ccccc3)NC(=O)[C@H](Cc3ccccc3)NC(=O)[C@H](CCCCN)NC(=O)[C@@H](N)CSSC[C@@H](C(=O)O)NC(=O)[C@H](CO)NC(=O)[C@H]([C@@H](C)O)NC(=O)[C@H](Cc3ccc(O)cc3)NC(=O)[C@H]([C@@H](C)O)NC2=O)cc1` .
Found: < 6.00

Lookup: Return reported pIC50 for target or system Somatostatin receptor type 4 (Homo sapiens), item `CC(C)NCc1ccc(C[C@@H]2NC(=O)[C@@H](Cc3c[nH]c4ccccc34)NC(=O)[C@@H]3CCC(=O)NCCCC[C@H](NC(=O)[C@H](Cc4ccccc4)NC(=O)[C@H]([C@@H](C)O)NC2=O)C(=O)N[C@@H](CO)C(=O)N[C@H](C(=O)O)CSSC[C@H](NC(=O)[C@@H](N)Cc2ccc(O)cc2)C(=O)N[C@@H](CCCCN)C(=O)N[C@@H](Cc2ccccc2)C(=O)N3)cc1` .
Found: < 6.00

Lookup: Return reported pIC50 for target or system Somatostatin receptor type 4 (Homo sapiens), item `CC(C)NCc1ccc(C[C@@H]2NC(=O)[C@@H](Cc3c[nH]c4ccccc34)NC(=O)[C@H](Cc3ccccc3)NC(=O)[C@H](Cc3ccccc3)NC(=O)[C@H](CCCCN)NC(=O)[C@@H](NC(=O)[C@@H](N)Cc3ccc(O)cc3)CSSC[C@@H](C(=O)O)NC(=O)[C@H](CO)NC(=O)[C@H]([C@@H](C)O)NC(=O)[C@H](Cc3ccccc3)NC(=O)[C@H]([C@@H](C)O)NC2=O)cc1` .
Found: < 5.00
